Where do the numbers come from? From ChEMBL document CHEMBL1149882.

- Tested on: Staphylococcus aureus
- TEST_DETAILS: Antimicrobial activity against methicillin-resistant Staphylococcus aureus ATCC 700787
- Type: functional
MIC listing for selected compounds.

The examples below pair each entry with its known result.
[[record]]
compound = "CC1=C(O)/C(=C/[C@H](C)CCC/C(C)=C/CC/C(C)=C/CCC2=CC(O)OC2=O)OC1=O (stereo partly drawn)"
assay_result = "> 100 µg/mL"

[[record]]
compound = "Cc1onc(-c2ccccc2)c1C(=O)N[C@@H]1C(=O)N2[C@@H]1SC(C)(C)[C@@H]2C(=O)O"
assay_result = "50 µg/mL"

[[record]]
compound = "COC(=O)C(C)(O)[C@](O)(C[C@H](C)CCC/C(C)=C/CC/C(C)=C/CCC1=CCN(CC(=O)O)C1=O)C(=O)OC (stereo partly drawn)"
assay_result = "> 100 µg/mL"

[[record]]
compound = "COC1C=C(CCC/C(C)=C\\CC/C(C)=C\\CC[C@@H](C)/C=C2\\OC(=O)C(C)=C2O)C(OC)O1 (stereo partly drawn)"
assay_result = "100 µg/mL"

[[record]]
compound = "CC1=C(O)/C(=C/[C@H](C)CC/C=C(/C)CC/C=C(/C)CCCC2=CC(O)OC2=O)OC1=O (stereo partly drawn)"
assay_result = "> 100 µg/mL"


# get_value(readout='MIC', item= COC(=O)C(C)(O)[C@@](O)(C[C@H](C)CC/C=C(/C)CC/C=C(/C)CCCc1ccoc1)C(=O)OC (stereo partly drawn) ) > 100 µg/mL

Same again, this time with COC(=O)C(C)(O)[C@](O)(C[C@H](C)CCC/C(C)=C/CC/C(C)=C/CCc1ccoc1)C(=O)OC (stereo partly drawn) > 100 µg/mL

Same read-out for CC1=C(O)/C(=C/[C@H](C)CCC/C(C)=C/CCC(C)(O)CCCc2ccoc2)OC1=O (stereo partly drawn) ? > 100 µg/mL

###

- Test system: K562
- TEST_DETAILS: Cytotoxicity against human K562 cells by MTT assay
- Format: functional
- TEST_PARAMETERS: read-out: LC50 (the source's name)
RECORDED_ENDPOINT: CC50

Worked cases, answers included:
[[record]]
molecule = "CC1=C(O)/C(=C/[C@H](C)CCC/C(C)=C/CCC(C)(O)CCCc2ccoc2)OC1=O (stereo not given in full)"
recorded_endpoint = "CC50"
assay_result = "> 100 µg/mL"

[[record]]
molecule = "CC1=C(O)/C(=C/[C@H](C)CC/C=C(/C)CC/C=C(/C)CCCC2=CC(=O)OC2O)OC1=O (stereo not given in full)"
recorded_endpoint = "CC50"
assay_result = "> 100 µg/mL"


CC50 for C/C(=C/CC[C@@H](C)CC(=O)O)CC/C=C(/C)CCCC1=CC(=O)OC1=O ? > 100 µg/mL

Queued: COC(=O)C(C)(O)[C@](O)(C[C@H](C)CC/C=C(/C)CC/C=C(/C)CCCc1ccoc1)C(=O)OC (stereo not given in full) 34 µg/mL

Input CC1=C(O)/C(=C/[C@H](C)CC/C=C(/C)CC/C=C(/C)CCCC2=CC(O)OC2=O)OC1=O (stereo not given in full) > 100 µg/mL

What about COC(=O)C(C)(O)[C@](O)(C[C@H](C)CCC/C(C)=C/CC/C(C)=C/CCc1ccoc1)C(=O)OC (stereo not given in full) ? 20 µg/mL

Can you handle CC1=C(O)/C(=C/[C@H](C)CC/C=C(/C)CC/C=C(/C)CCCc2ccoc2)OC1=O next? 62 µg/mL

How about C/C(=C\CCc1ccoc1)CC/C=C(\C)CCC[C@@H](C)CC(=O)O ? > 100 µg/mL

Now give it for CC1=C(O)/C(=C/[C@H](C)CCC/C(C)=C/CC/C(C)=C/CCc2ccoc2)OC1=O too. 39 µg/mL

Same lookup for CC1=C(O)/C(=C/[C@H](C)CCC/C(C)=C/CC/C(C)=C/CCC2=CC(O)OC2=O)OC1=O (stereo not given in full) , please. > 100 µg/mL

Then COC(=O)C(C)(O)[C@](O)(C[C@H](C)CCC/C(C)=C/CC/C(C)=C/CCC1=CCN(CC(=O)O)C1=O)C(=O)OC (stereo not given in full) ? > 100 µg/mL

Request: COC(=O)C(C)(O)[C@](O)(C[C@H](C)CC/C=C(/C)CC/C=C(/C)CCCC1=CCN(CC(=O)O)C1=O)C(=O)OC (stereo not given in full) > 100 µg/mL

###

- Tested on: Micrococcus luteus
- TEST_DETAILS: Antimicrobial activity against Micrococcus luteus IFC12708
- Type: functional
RECORDED_ENDPOINT: MIC (µg/mL)
Number in µg/mL, nothing else.

Query the reported MIC for Micrococcus luteus; item: CC1=C(O)/C(=C/[C@H](C)CCC/C(C)=C/CC/C(C)=C/CCC2=CC(O)OC2=O)OC1=O (stereo partly specified) 50

Would you mind doing CC1=C(O)/C(=C/[C@H](C)CC/C=C(/C)CC/C=C(/C)CCCC2=CC(=O)OC2O)OC1=O (stereo partly specified) as well? 50

// same read-out, input: CC1=C(O)/C(=C/[C@H](C)CC/C=C(/C)CC/C=C(/C)CCCc2ccoc2)OC1=O 3.12

Next molecule up: COC1C=C(CCC/C(C)=C\CC/C(C)=C\CC[C@@H](C)/C=C2\OC(=O)C(C)=C2O)C(OC)O1 (stereo partly specified) 50

Then C/C(=C/CC[C@@H](C)CC(=O)O)CC/C=C(/C)CCCc1ccoc1 ? 6.25

###

- Test system: Staphylococcus aureus
- TEST_DETAILS: Antimicrobial activity against methicillin-resistant Staphylococcus aureus ATCC 700787
- Assay type: functional
RECORDED_ENDPOINT: MIC

# annotated cases, reported MIC shown
[[record]]
molecule = "COC(=O)C(C)(O)[C@](O)(C[C@H](C)CC/C=C(/C)CC/C=C(/C)CCCC1=CCN(CC(=O)O)C1=O)C(=O)OC (stereo partly drawn)"
recorded_endpoint = "MIC"
assay_result = "> 100 mg/L"

[[record]]
molecule = "C/C(=C/CC[C@@H](C)CC(=O)O)CC/C=C(/C)CCCC1=CC(=O)OC1=O"
recorded_endpoint = "MIC"
assay_result = "> 100 mg/L"


From here, focus on the item given below.
# MIC lookup, item COC(=O)C(C)(O)[C@](O)(C[C@H](C)CC/C=C(/C)CC/C=C(/C)CCCc1ccoc1)C(=O)OC (stereo partly drawn) > 100 mg/L

###

List of CC50 values.
- System: K562
- TEST_DETAILS: Cytotoxicity against human K562 cells by MTT assay
- Format: functional
- TEST_PARAMETERS: read-out: LC50 (the source's name)
Numeric only. Scale: µg/mL

[[record]]
molecule = "COC1C=C(CC/C=C(\\C)CC/C=C(\\C)CCC[C@@H](C)/C=C2\\OC(=O)C(C)=C2O)C(OC)O1 (stereo partly drawn)"
recorded_endpoint = "CC50"
unit_descriptor = "µg/mL"
assay_result = 80


Fill in: CC50 of COC(=O)C(C)(O)[C@@](O)(C[C@H](C)CC/C=C(/C)CC/C=C(/C)CCCc1ccoc1)C(=O)OC (stereo partly drawn) is ___ 46
